# EXPERIMENTAL_SYSTEM: fascin1 (Homo sapiens, UniProt Q16658)
pKd: −log10 of the molar value.
ENDPOINT_NAME: pKd

GIVEN_SMILES | EXPERIMENTAL_SYSTEM | ENDPOINT_NAME | ASSAY_VALUE
CN(C)CCCN1c2ccccc2CCc2ccccc21 | fascin1 (Homo sapiens, UniProt Q16658) | pKd | 3.41
